# experiment description: clinical
# test context: human, in vivo
experimental readout: log10 CL renal (log10 of the value in mL/min/kg)
Hey, these are logged values: log10 of CL renal, mL/min/kg being the unit before logging.

// worked examples, log10 CL renal included
compound="COc1cc2nc(N3CCN(C(=O)C4CCCO4)CC3)nc(N)c2cc1OC (stereo not given) [TERAZOSIN]" value_reported=-1.00
compound=Cc1nnc(SCC2=C(C(=O)O)N3C(=O)[C@@H](NC(=O)[C@H](O)c4ccccc4)[C@H]3SC2)s1 value_reported=0.38
compound="CN1C(C(=O)Nc2ccccn2)=C(O)c2sccc2S1(=O)=O [TENOXICAM]" value_reported=-3.52
compound="CCOc1ccccc1OCCN[C@H](C)Cc1ccc(OC)c(S(N)(=O)=O)c1 [TAMSULOSIN]" value_reported=-1.00
compound="c1ccc(C2(N3CCCCC3)CCCCC2)cc1 [PHENCYCLIDINE]" value_reported=-0.10

Please give the measured log10 CL renal for this compound: O=C(c1ccc(F)cc1)C1CCN(CCn2c(=O)[nH]c3ccccc3c2=O)CC1 [KETANSERIN] -1.00

Please give the measured log10 CL renal for this compound: CCC1=C(C)CN(C(=O)NCCc2ccc(S(=O)(=O)NC(=O)N[C@H]3CC[C@H](C)CC3)cc2)C1=O [GLIMEPIRIDE] -2.70

Please give the measured log10 CL renal for this compound: Cn1c(=O)c2c(ncn2CC(O)CO)n(C)c1=O (stereo not given) [DYPHYLLINE] 0.60

Please give the measured log10 CL renal for this compound: O=C1CN=C(c2ccccc2)c2cc([N+](=O)[O-])ccc2N1 [NITRAZEPAM] -2.07

Please give the measured log10 CL renal for this compound: C[C@@H]1C[C@H]2[C@@H]3CCC4=CC(=O)C=C[C@]4(C)[C@@]3(F)[C@@H](O)C[C@]2(C)[C@@]1(O)C(=O)CO [DEXAMETHASONE] -1.00

Please give the measured log10 CL renal for this compound: CCCc1nc2c(C)cc(-c3nc4ccccc4n3C)cc2n1Cc1ccc(-c2ccccc2C(=O)O)cc1 -1.00

Please give the measured log10 CL renal for this compound: CCN1CC(CCN2CCOCC2)C(c2ccccc2)(c2ccccc2)C1=O (stereo not given) [DOXAPRAM] -0.52

###

# Species: Homo sapiens
# experiment description: Fraction escaping hepatic elimination in human
# test context: in vivo
experimental readout: Fh
# respond with the number and nothing more

// worked examples, Fh included
compound="CC(C)NCC(O)COc1ccc(CCOCC2CC2)cc1 (stereo not drawn) [BETAXOLOL]" value_reported=0.88
compound="Nc1ccn([C@H]2CC[C@@H](CO)O2)c(=O)n1 [ZALCITABINE]" value_reported=0.95

Now for the compound whose Fh we want.
Please give the measured Fh for this compound: CC(C)(C)NC(=O)[C@@H]1C[C@@H]2CCCC[C@@H]2CN1C[C@@H](O)[C@H](Cc1ccccc1)NC(=O)[C@H](CC(N)=O)NC(=O)c1ccc2ccccc2n1 0.45

###

Parameter: log10 of CL. Scope: all listed entries.
# Species: Homo sapiens
# experiment description: Hepatic clearance in human
# test context: in vivo
Hey, these are logged values: log10 of CL, mL/min/kg being the unit before logging.

// worked examples, log10 of CL included
molecule="CN(CCOc1ccc(CC2SC(=O)NC2=O)cc1)c1ccccn1 (stereo not drawn)" value_reported=-0.15
molecule=CN1CCN(c2c(F)cc3c(=O)c(C(=O)O)cn(CCF)c3c2F)CC1 value_reported=-0.05
molecule=N[C@@H](C(=O)N[C@@H]1C(=O)N2C(C(=O)O)=C(CSc3c[nH]nn3)CS[C@H]12)c1ccc(O)cc1 value_reported=-0.15
molecule=Cc1cc(NC(=O)C2=C(O)c3ccccc3S(=O)(=O)N2C)no1 value_reported=-1.00
molecule="CCN1CCCC1CNC(=O)c1cc(S(=O)(=O)CC)c(N)cc1OC (stereo not drawn) [AMISULPRIDE]" value_reported=0.53

Please give the measured log10 of CL for this molecule: C[C@@H]1C(=O)O[C@H]2C[C@@]34[C@H]5C[C@@H](C(C)(C)C)[C@]36[C@@H](OC(=O)[C@@H]6O)O[C@@]4(C(=O)O5)[C@]21O [GINKGOLIDE A] -0.15

Please give the measured log10 of CL for this molecule: CCCc1nc2c(C)cc(-c3nc4ccccc4n3C)cc2n1Cc1ccc(-c2ccccc2C(=O)O)cc1 0.92

Please give the measured log10 of CL for this molecule: N[C@@H]1CN(c2c(F)cc3c(=O)c(C(=O)O)cn([C@@H]4C[C@@H]4F)c3c2Cl)CC12CC2 [SITAFLOXACIN ANHYDROUS] -0.05

Please give the measured log10 of CL for this molecule: Nc1nc(O)c2ncn(COC(CO)CO)c2n1 -0.30

Please give the measured log10 of CL for this molecule: CCCCCN(CCCOC)C(=O)C(CCC(=O)O)NC(=O)c1ccc(Cl)c(Cl)c1 (stereo not drawn) [LOXIGLUMIDE] 0.00

###

# Organism: Homo sapiens
# experiment description: Hepatic clearance in human
# test context: in vivo
experimental readout: CL

// worked examples, CL included
compound="CC1COc2c(N3CCN(C)CC3)c(F)cc3c(=O)c(C(=O)O)cn1c23 (centres undefined)" value_reported="0.8 mL/min/kg"
compound="CCN1CC(CCN2CCOCC2)C(c2ccccc2)(c2ccccc2)C1=O (centres undefined)" value_reported="5 mL/min/kg"
compound=CN1C(=O)CC[C@H]1c1cccnc1 value_reported="0.8 mL/min/kg"

Please give the measured CL for this compound: O=C1NCC2(CCN(CCc3ccccc3)CC2)O1 [FENSPIRIDE] 0.8 mL/min/kg

###

Parameter: CL. Scope: all listed entries.
# Organism: Homo sapiens
# experiment description: Hepatic clearance in human
# test context: in vivo
All answers are understood in mL/min/kg, so give the number only.

compound="CCCCNc1cc(C(=O)O)cc(S(N)(=O)=O)c1Oc1ccccc1 [BUMETANIDE]" u=mL/min/kg value_reported=1

Please give the measured CL for this compound: CC(C(=O)O)c1ccc(C(=O)c2cccs2)cc1 (stereo not given) 0.7

Please give the measured CL for this compound: CC(C)(C)NC[C@H](O)COc1nsnc1N1CCOCC1 7.1

Please give the measured CL for this compound: COC(=O)Nc1nc2ccc(C(=O)c3ccccc3)cc2[nH]1 14.8

Please give the measured CL for this compound: CCOC(=O)Nc1ccc(NCc2ccc(F)cc2)nc1N 1.3

Please give the measured CL for this compound: CCN1CCCC1CNC(=O)c1cc(S(N)(=O)=O)ccc1OC (stereo not given) [SULPIRIDE] 0.1

Please give the measured CL for this compound: CNS(=O)(=O)CCc1ccc2[nH]cc(C3CCN(C)CC3)c2c1 3.5

Please give the measured CL for this compound: Cc1cccc(Nc2ccncc2S(=O)(=O)NC(=O)NC(C)C)c1 [TORSEMIDE] 0.4

Please give the measured CL for this compound: NC1CCN(c2c(F)cc3c(=O)c(C(=O)O)cn(C4CC4)c3c2Cl)C1 (stereo not given) 1.5

Please give the measured CL for this compound: O=P1(N(CCCl)CCCl)NCCCO1 (stereo not given) [CYCLOPHOSPHAMIDE ANHYDROUS] 1

###

# experiment description: clinical
# test context: human, in vivo
Parameter: CL renal. Scope: all listed entries.
All answers are understood in mL/min/kg, so give the number only.

// worked examples, CL renal included
compound="CCO[C@@H](Cc1ccc(OCCc2ccc(OS(C)(=O)=O)cc2)cc1)C(=O)O [TESAGLITAZAR]" experimental_readout="CL renal" u=mL/min/kg value_reported=0.007
compound="CNCC[C@@H](Oc1ccccc1C)c1ccccc1 [ATOMOXETINE]" experimental_readout="CL renal" u=mL/min/kg value_reported=0.3
compound="COc1ccc2[nH]c([S+]([O-])Cc3ncc(C)c(OC)c3C)nc2c1 (centres undefined) [OMEPRAZOLE]" experimental_readout="CL renal" u=mL/min/kg value_reported=0.1
compound="CC(C)(C)NC(=O)[C@H]1CC[C@H]2[C@@H]3CC[C@H]4NC(=O)C=C[C@]4(C)[C@H]3CC[C@]12C [FINASTERIDE]" experimental_readout="CL renal" u=mL/min/kg value_reported=0.024
compound="CCCNC(=O)NS(=O)(=O)c1ccc(Cl)cc1 [CHLORPROPAMIDE]" experimental_readout="CL renal" u=mL/min/kg value_reported=0.009

Please give the measured CL renal for this compound: CC(C)(O)c1ccccc1CC[C@@H](SCC1(CC(=O)O)CC1)c1cccc(/C=C/c2ccc3ccc(Cl)cc3n2)c1 [MONTELUKAST] 0.0014

Please give the measured CL renal for this compound: CN1C(=O)CC[C@H]1c1cccnc1 [COTININE] 0.1

Please give the measured CL renal for this compound: CN(C)C(=O)Oc1cccc([N+](C)(C)C)c1.[Br-] [NEOSTIGMINE BROMIDE] 5.4

Please give the measured CL renal for this compound: CC1=NS(=O)(=O)c2cc(Cl)ccc2N1 [DIAZOXIDE] 0.1
